# EXPERIMENTAL DETAILS: Solubility of drugs in water
# CONDITIONS: water
Entries and their measured solubility follow.

>  <COMPOUND>
C[C@]12CC[C@@H]3c4ccc(O)cc4CC[C@H]3[C@@H]1C[C@@H](O)[C@@H]2O

>  <solubility>
< 1300 µg/mL

$$$$
>  <COMPOUND>
C#C[C@]1(O)CC[C@H]2[C@@H]3CCc4cc(OC)ccc4[C@H]3CC[C@@]21C

>  <solubility>
< 1500 µg/mL

$$$$
>  <COMPOUND>
NS(=O)(=O)c1cc2c(cc1C(F)(F)F)NCNS2(=O)=O [hydroflumethiazide]

>  <solubility>
300 µg/mL

$$$$
